Values compiled from ChEMBL document CHEMBL1147557.

Biological target: Beta-galactoside alpha-2,6-sialyltransferase 1 (Rattus norvegicus)
Assay: Kinetic parameter of sialylation by alpha-2,6-sialyltransferase
assay readout: Vmax / Km

A selection of reference data follows.
CO[C@@H]1O[C@@H](CO)[C@@H](O[C@@H]2O[C@@H](CO)[C@H](O)[C@H](O)[C@@H]2O)[C@H](O)[C@@H]1NC(C)=O ... 0.6
COC[C@@H]1O[C@@H](OC)[C@@H](NC(C)=O)[C@@H](O)[C@@H]1O[C@@H]1O[C@@H](CO)[C@H](O)[C@H](O)[C@@H]1O ... 0.2
CO[C@@H]1O[C@@H](CO)[C@@H](O[C@@H]2O[C@@H](CO)[C@H](O)[C@H](O)[C@@H]2OC)[C@H](O)[C@@H]1NC(C)=O ... 0.2

1: CO[C@@H]1O[C@@H](C(N)=O)[C@@H](O[C@@H]2O[C@@H](CO)[C@H](O)[C@H](O)[C@@H]2O)[C@H](O)[C@@H]1NC(C)=O
2: CO[C@@H]1O[C@@H](CNC=O)[C@@H](O[C@@H]2O[C@@H](CO)[C@H](O)[C@H](O)[C@@H]2O)[C@H](O)[C@@H]1NC(C)=O
Query: Lab note: check whether 1 or 2 has the lower measured Vmax / Km. Reply briefly: the label of your chosen item.
Reply: 1
(1: 0.02, 2: 1.5)

----------
Biological target: Beta-galactoside alpha-2,6-sialyltransferase 1 (Rattus norvegicus)
Assay: Kinetic parameter of sialylation by alpha-2,6-sialyltransferase
assay readout: Vmax / Km

I: CNC(=O)[C@@H]1O[C@@H](OC)[C@@H](NC(C)=O)[C@@H](O)[C@@H]1O[C@@H]1O[C@@H](CO)[C@H](O)[C@H](O)C1O (some centres not stated)
II: CO[C@@H]1O[C@@H](CNC=O)[C@@H](O[C@@H]2O[C@@H](CO)[C@H](O)[C@H](O)[C@@H]2OC)[C@H](O)[C@@H]1NC(C)=O
Query: Given I and II , report the one with the higher recorded Vmax / Km. Reply briefly: the label of your chosen item.
Reply: II
(II: 0.3, I: 0.08)

----------
System: Alpha-(1,3)-fucosyltransferase 6 (Homo sapiens)
Test: Kinetic parameter of […] by fucosyltransferase 6 alpha 1,3
assay readout: Vmax / Km

CO[C@@H]1O[C@@H](CNC(C)=O)[C@@H](O[C@@H]2O[C@@H](CO)[C@H](O)[C@H](O)[C@@H]2O)[C@H](O)[C@@H]1NC(C)=O ... 6.8

P: COC[C@@H]1O[C@@H](OC)[C@@H](NC(C)=O)[C@@H](O)[C@@H]1O[C@@H]1O[C@@H](CO)[C@H](O)[C@H](O)[C@@H]1OC
Q: CO[C@@H]1O[C@@H](COS(C)(=O)=O)[C@@H](O[C@@H]2O[C@@H](CO)[C@H](O)[C@H](O)[C@@H]2O)[C@H](O)[C@@H]1NC(C)=O
Query: Lab note: check whether P or Q has the lower measured Vmax / Km. Reply briefly: the label of your chosen item.
Reply: Q

----------
Target: UniProtKB P13721
Sequence (P13721 whole entry): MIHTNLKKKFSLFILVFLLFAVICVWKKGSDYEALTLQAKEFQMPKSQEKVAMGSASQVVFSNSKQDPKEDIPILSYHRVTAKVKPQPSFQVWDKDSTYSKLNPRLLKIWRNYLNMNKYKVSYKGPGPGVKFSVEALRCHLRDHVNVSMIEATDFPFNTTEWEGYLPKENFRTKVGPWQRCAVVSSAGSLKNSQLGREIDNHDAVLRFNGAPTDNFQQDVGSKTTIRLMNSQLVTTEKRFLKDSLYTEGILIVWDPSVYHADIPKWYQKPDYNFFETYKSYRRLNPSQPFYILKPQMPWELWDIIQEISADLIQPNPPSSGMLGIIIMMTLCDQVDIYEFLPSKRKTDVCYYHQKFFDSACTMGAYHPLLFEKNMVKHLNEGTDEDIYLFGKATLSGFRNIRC
Experiment: Kinetic parameter of sialylation by alpha-2,6-sialyltransferase
assay readout: Vmax / Km

CO[C@@H]1O[C@@H](CNS(C)(=O)=O)[C@@H](O[C@@H]2O[C@@H](CO)[C@H](O)[C@H](O)[C@@H]2O)[C@H](O)[C@@H]1NC(C)=O ... 0.9
COC(=O)[C@@H]1O[C@@H](OC)[C@@H](NC(C)=O)[C@@H](O)[C@@H]1O[C@@H]1O[C@@H](CO)[C@H](O)[C@H](O)[C@@H]1O ... 0.2
CO[C@@H]1O[C@@H](COS(C)(=O)=O)[C@@H](O[C@@H]2O[C@@H](CO)[C@H](O)[C@H](O)[C@@H]2O)[C@H](O)[C@@H]1NC(C)=O ... 1.3

a: CO[C@@H]1O[C@@H](CN)[C@@H](O[C@@H]2O[C@@H](CO)[C@H](O)[C@H](O)[C@@H]2O)[C@H](O)[C@@H]1NC(C)=O
b: CO[C@@H]1O[C@@H](CNC(C)=O)[C@@H](O[C@@H]2O[C@@H](CO)[C@H](O)[C@H](O)[C@@H]2O)[C@H](O)[C@@H]1NC(C)=O
Query: Lab note: check whether a or b has the lower measured Vmax / Km. Reply briefly: the label of your chosen item.
Reply: a
